The measurements presented in this section are drawn from ChEMBL document CHEMBL1126069.

Biological target: Sex hormone-binding globulin (Homo sapiens) (UniProt P04278)
Sequence (P04278 whole entry): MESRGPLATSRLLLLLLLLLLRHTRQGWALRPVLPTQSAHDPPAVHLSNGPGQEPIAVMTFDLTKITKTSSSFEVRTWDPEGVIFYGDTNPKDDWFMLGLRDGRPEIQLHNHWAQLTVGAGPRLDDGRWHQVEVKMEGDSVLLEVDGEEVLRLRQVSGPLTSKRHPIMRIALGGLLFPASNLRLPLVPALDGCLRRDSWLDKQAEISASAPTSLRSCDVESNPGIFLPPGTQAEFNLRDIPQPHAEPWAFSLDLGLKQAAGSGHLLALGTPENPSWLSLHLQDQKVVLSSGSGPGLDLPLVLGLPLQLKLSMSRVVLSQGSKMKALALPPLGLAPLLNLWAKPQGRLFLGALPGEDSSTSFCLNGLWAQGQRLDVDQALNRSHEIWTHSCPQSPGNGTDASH
Test: Displacement of [3H]estradiol from human Sex steroid binding protein (SBP)
MEASURED_METRIC: relative binding affinity (RBA)
One number for each entry.

Could I get relative binding affinity (RBA) for every one of these entries?
1. C[C@]12C=CC3=C4CCC(=O)C=C4CCC3C1CC[C@@]2(O)CF (some centres undefined)
2. C[C@@H]1CC2=CC(=O)CC[C@@H]2C2CC[C@@]3(C)C(C[C@@H](F)[C@@H]3O)C21 (some centres undefined)
3. C[C@@H]1CC2=CC(=O)CC[C@@H]2C2CC[C@@]3(C)C(CC[C@]3(C)O)C21 (some centres undefined)

Reply text:
2.2
4.01
19

Could I get relative binding affinity (RBA) for every one of these entries?
1. C[C@]1(O)CC[C@H]2[C@@H]3CCC4=CC(=O)CCC4=C3C=C[C@@]21C
2. C[C@@H]1CC2=CC(=O)CC[C@@H]2C2CC[C@@]3(C)C(C[C@H](F)[C@@H]3O)C21 (some centres undefined)
3. C[C@@H]1CC2=CC(=O)CC[C@@H]2C2CC[C@@]3(C)C(CC[C@@H]3O)C21 (some centres undefined)
4. C[C@]12CC[C@H]3[C@@H](CCC4CC(=O)CC[C@@]43C)[C@@H]1C[C@@H](F)[C@@H]2O (some centres undefined)
5. C[C@@H]1CC2=CC(=O)CC[C@@H]2C2CC[C@@]3(C)C(CC[C@@]3(O)CF)C21 (some centres undefined)
6. C[C@]12CC[C@H]3[C@@H](CCC4=CC(=O)CC[C@@]43C)[C@@H]1CC[C@@H]2O

Reply text:
1: 4; 2: 3.75; 3: 28.7; 4: 228; 5: 3; 6: 417
